The measurements presented in this section are drawn from paper PMC12416549.

Assay System: T1, TNFR1 (Homo sapiens, UniProt P19438)
T1 chain: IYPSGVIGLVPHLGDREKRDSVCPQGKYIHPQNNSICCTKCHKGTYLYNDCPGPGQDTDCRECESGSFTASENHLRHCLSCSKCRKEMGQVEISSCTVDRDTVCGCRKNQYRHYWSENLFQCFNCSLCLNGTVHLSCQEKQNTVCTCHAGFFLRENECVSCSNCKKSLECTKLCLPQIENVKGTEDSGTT
Assay Method Text: yeast display SC50
Readout Kind: apparent Kd (screen) (nM)

1: A23I (designed binder) MTLQELLREEALRRAEAEAFRYILELLAEKFPEQKEYLLDLAEEIESQIRSLSGVDVEDVRKFLDKEWAWVKELLAEHPAELAEVEAARAARLAELRAEVEAKVAA
2: E67H (designed binder) MTLQELLREEALRRAEAEAFRYALELLAEKFPEQKEYLLDLAEEIESQIRSLSGVDVEDVRKFLDKHWAWVKELLAEHPAELAEVEAARAARLAELRAEVEAKVAA
3: L52D (designed binder) MTLQELLREEALRRAEAEAFRYALELLAEKFPEQKEYLLDLAEEIESQIRSDSGVDVEDVRKFLDKEWAWVKELLAEHPAELAEVEAARAARLAELRAEVEAKVAA
Asked: Sort ascending by apparent Kd (screen). List the labels according to the requested ordering.
Given back: 2, 1, 3
